- Test system: synthesis of LTB4 in human whole blood
- assay_name: human whole blood (HWB) assay, LTB4 production inhibition after calcimycin stimulation
- Format: cell-based
- run_conditions: heparinized human whole blood, calcimycin 20 μM, plasma LTB4 by HTRF
observed_property: IC50 (nM)
Quick reminder: number only, in nM, skip the unit.

molecule	measure_unit	IC50
CC(=O)NCC1CCN(Cc2ccc([C@H]3COc4cccnc4O3)cc2)CC1	nM	93
NC(=O)NC1CCN(Cc2ccc(C3COc4ccccc4O3)cc2)CC1 (racemic)	nM	155
O=C(NCCO)C1CCN(Cc2ccc(C3COc4ccccc4O3)cc2)CC1 (racemic)	nM	145
CC(=O)N1CC2CCC(C1)N2Cc1ccc([C@H]2COc3cccnc3O2)cc1	nM	110
CC(=O)NCCC(=O)N1CCN(Cc2ccc([C@H]3COc4cccnc4O3)cc2)CC1	nM	150
O=C(O)C1CCC(C2CCN(Cc3ccc([C@H]4COc5cccnc5O4)cc3)CC2)CC1 (some centres unmarked)	nM	150
C[C@H](O)CNC(=O)[C@H]1[C@@H]2CN(Cc3ccc([C@H]4COc5cccnc5O4)cc3)C[C@@H]21	nM	68

Turning now to a further molecule:
Give the measured IC50 for O=C(CO)N1C[C@@H]2C[C@H]1CN2Cc1ccc([C@H]2COc3cccnc3O2)cc1
65
